- protocol: Metabolic stability in human liver microsomes assessed as compound remaining measured after 2 hrs in presence of NADPH regenerating system measured upto 120 mins by LC-MS analysis
- Format: ADME, Microsome
- details: read-out: Stability
readout.label: remaining at 2 h

Kindly note the recorded remaining at 2 h for `COc1cc(OC)c(Cl)c(-c2ccc3nc(Nc4ncccc4[N+](=O)[O-])ncc3c2)c1Cl` , which is > 80%

====

- target.entity: Fibroblast growth factor receptor 4 (Homo sapiens)
- protocol: Inhibition of N-terminal GST tagged cytoplasmic domain human FGFR4 (460 to 802 residues) expressed in Escherichia coli BL21 (DE3) using CSox as substrate incubated for 240 mins in presence of ATP by hotspot assay
- Sequence (P22455 whole entry, the tested form may be a part): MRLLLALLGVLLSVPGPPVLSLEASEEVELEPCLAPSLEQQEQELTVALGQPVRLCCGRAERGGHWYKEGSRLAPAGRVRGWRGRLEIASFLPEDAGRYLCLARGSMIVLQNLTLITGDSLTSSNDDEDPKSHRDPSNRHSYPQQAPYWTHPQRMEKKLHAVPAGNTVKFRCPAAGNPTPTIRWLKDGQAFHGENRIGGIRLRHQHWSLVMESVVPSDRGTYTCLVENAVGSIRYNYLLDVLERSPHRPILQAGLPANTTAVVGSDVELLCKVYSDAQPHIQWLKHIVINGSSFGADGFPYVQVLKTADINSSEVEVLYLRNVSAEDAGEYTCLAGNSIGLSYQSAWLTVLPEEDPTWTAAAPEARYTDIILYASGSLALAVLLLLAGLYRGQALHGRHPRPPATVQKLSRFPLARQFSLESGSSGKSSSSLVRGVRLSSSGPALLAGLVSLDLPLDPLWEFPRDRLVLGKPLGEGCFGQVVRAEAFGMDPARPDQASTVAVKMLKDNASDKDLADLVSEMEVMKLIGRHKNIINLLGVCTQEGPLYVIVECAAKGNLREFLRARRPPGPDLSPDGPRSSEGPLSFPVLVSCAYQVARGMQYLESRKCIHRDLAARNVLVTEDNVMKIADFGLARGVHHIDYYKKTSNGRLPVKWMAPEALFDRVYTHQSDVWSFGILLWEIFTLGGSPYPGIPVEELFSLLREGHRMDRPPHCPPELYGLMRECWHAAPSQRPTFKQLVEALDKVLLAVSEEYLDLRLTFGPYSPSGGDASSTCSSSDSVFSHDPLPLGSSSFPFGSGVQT
Could you please report measured IC50 for the items listed next?

Kindly note the recorded IC50 for `COc1cc(OC)c(Cl)c(-c2ccc3nc(Nc4ncccc4[N+](=O)[O-])ncc3c2)c1Cl` , which is 1700 nM

Kindly note the recorded IC50 for `COc1cc(OC)c(Cl)c(-c2ccc3nc(Nc4nc(Cl)ccc4[N+](=O)[O-])ncc3c2)c1Cl` , which is < 0.5 nM

Kindly note the recorded IC50 for `COc1cc(OC)cc(-c2ccc3nc(-c4cccc5cnc(Cl)nc45)ncc3c2)c1` , which is > 5000 nM

Kindly note the recorded IC50 for `COc1cc(OC)cc(-c2ccc3ncncc3c2)c1` , which is > 5000 nM

====

readout.label: Ki (nM)
Express the result in nM but write the number alone.

Entry `COc1cc(OC)c(Cl)c(-c2ccc3nc(Nc4nc(Cl)ccc4[N+](=O)[O-])ncc3c2)c1Cl` , tested on Fibroblast growth factor receptor 4 (Homo sapiens), has a reported Ki of 5.7

====

Could you please report measured pIC50 for the items listed next?
- target.entity: Fibroblast growth factor receptor 4 (Homo sapiens, UniProt P22455)
- protocol: Inhibition of N-terminal GST tagged cytoplasmic domain human FGFR4 (460 to 802 residues) expressed in Escherichia coli BL21 (DE3) using CSox as substrate incubated for 240 mins in presence of ATP by hotspot assay
pIC50: −log10 of the molar value.

Kindly note the recorded pIC50 for `COc1cc(OC)cc(-c2ccc3nc(Nc4nc(C)ccc4[N+](=O)[O-])ncc3c2)c1` , which is < 5.30

Kindly note the recorded pIC50 for `COc1cc(OC)cc(-c2ccc3nc(-n4ccc5cnc(Cl)nc54)ncc3c2)c1` , which is < 5.30

Kindly note the recorded pIC50 for `COc1cc(OC)cc(-c2ccc3nc(Sc4nc(Cl)ncc4F)ncc3c2)c1` , which is < 5.30

Kindly note the recorded pIC50 for `COc1cc(OC)cc(-c2ccc3nc(Sc4ncccc4[N+](=O)[O-])ncc3c2)c1` , which is < 5.30

Kindly note the recorded pIC50 for `COc1cc(OC)cc(-c2ccc3nc(Sc4ccnc(F)n4)ncc3c2)c1` , which is < 5.30

Kindly note the recorded pIC50 for `COc1cc(OC)cc(-c2ccc3nc(Sc4nc(Cl)ccc4[N+](=O)[O-])ncc3c2)c1` , which is 5.35

Kindly note the recorded pIC50 for `COc1cc(OC)cc(-c2ccc3nc(Nc4nc(Cl)ccc4[N+](=O)[O-])ncc3c2)c1` , which is > 9.30

Kindly note the recorded pIC50 for `COc1cc(OC)cc(-c2ccc3nc(Nc4ncccc4[N+](=O)[O-])ncc3c2)c1` , which is < 5.30

Kindly note the recorded pIC50 for `COc1cc(OC)cc(-c2ccc3nc(Sc4ccnc(Cl)n4)ncc3c2)c1` , which is < 5.30

Kindly note the recorded pIC50 for `COc1cc(OC)c(Cl)c(-c2ccc3ncncc3c2)c1Cl` , which is 5.68

====

- target.entity: UniProt:Q9UBS0
- Sequence (Q9UBS0 whole entry): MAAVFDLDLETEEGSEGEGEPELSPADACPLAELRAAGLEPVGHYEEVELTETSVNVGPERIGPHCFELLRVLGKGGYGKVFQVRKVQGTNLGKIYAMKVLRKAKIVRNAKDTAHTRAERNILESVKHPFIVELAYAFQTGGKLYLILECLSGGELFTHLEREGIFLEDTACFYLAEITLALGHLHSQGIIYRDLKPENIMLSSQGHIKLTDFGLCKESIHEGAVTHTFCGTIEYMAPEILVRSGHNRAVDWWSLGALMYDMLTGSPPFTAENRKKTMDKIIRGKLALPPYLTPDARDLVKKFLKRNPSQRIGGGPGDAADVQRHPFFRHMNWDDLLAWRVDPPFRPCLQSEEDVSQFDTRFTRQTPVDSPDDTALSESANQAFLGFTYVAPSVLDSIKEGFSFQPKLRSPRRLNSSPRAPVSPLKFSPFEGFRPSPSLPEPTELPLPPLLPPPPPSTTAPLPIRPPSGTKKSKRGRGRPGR
readout.label: pIC50
By convention, pIC50 is the negative base-10 log of a molar concentration.

Kindly note the recorded pIC50 for `COc1cc(OC)c(Cl)c(-c2ccc3nc(Nc4nc(Cl)ccc4[N+](=O)[O-])ncc3c2)c1Cl` , which is 7.74

====

- target.entity: UniProt P22455
- protocol: Inhibition of N-terminal GST tagged cytoplasmic domain human FGFR4 (460 to 802 residues) expressed in Escherichia coli BL21 (DE3) using CSox as substrate assessed as residual activity at 5 uM incubated for 240 mins in presence of ATP by hotspot assay relative to control
- Sequence (P22455 22-802 limits assumed): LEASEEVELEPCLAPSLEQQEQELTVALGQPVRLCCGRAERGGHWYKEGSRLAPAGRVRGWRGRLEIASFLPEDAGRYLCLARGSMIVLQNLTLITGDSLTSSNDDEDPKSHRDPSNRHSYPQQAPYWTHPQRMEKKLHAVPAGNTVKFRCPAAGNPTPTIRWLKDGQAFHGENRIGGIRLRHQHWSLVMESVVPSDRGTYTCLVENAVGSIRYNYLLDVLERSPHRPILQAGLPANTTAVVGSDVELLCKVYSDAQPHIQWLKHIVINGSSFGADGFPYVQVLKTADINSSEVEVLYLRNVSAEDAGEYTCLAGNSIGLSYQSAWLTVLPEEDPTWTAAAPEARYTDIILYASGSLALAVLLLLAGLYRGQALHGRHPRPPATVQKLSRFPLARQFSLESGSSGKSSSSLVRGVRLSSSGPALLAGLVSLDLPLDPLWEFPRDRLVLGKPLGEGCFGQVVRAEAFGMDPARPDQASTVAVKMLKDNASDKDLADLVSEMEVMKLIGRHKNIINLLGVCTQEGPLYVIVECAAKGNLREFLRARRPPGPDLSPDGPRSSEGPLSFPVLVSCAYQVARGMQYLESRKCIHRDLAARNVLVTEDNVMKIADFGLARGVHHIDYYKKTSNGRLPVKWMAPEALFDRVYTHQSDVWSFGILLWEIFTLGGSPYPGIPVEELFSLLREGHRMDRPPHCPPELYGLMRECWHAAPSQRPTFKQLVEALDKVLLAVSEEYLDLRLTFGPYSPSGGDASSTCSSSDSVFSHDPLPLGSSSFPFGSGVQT
readout.label: Activity (%)
Express the result in % but write the number alone.

Kindly note the recorded Activity for `COc1cc(OC)cc(-c2ccc3ncncc3c2)c1` , which is 93.1

Kindly note the recorded Activity for `COc1cc(OC)cc(-c2ccc3nc(Sc4ccnc(Cl)n4)ncc3c2)c1` , which is 82.6

Kindly note the recorded Activity for `COc1cc(OC)cc(-c2ccc3nc(Sc4ncccc4[N+](=O)[O-])ncc3c2)c1` , which is 97.9

Kindly note the recorded Activity for `COc1cc(OC)cc(-c2ccc3nc(Sc4nc(Cl)ncc4F)ncc3c2)c1` , which is 96.5

Kindly note the recorded Activity for `COc1cc(OC)cc(-c2ccc3nc(-c4cccc5cnc(Cl)nc45)ncc3c2)c1` , which is 96.5

Kindly note the recorded Activity for `COc1cc(OC)c(Cl)c(-c2ccc3nc(Nc4ncccc4[N+](=O)[O-])ncc3c2)c1Cl` , which is 89.4

Kindly note the recorded Activity for `COc1cc(OC)cc(-c2ccc3nc(Nc4nc(C)ccc4[N+](=O)[O-])ncc3c2)c1` , which is 53.6

Kindly note the recorded Activity for `COc1cc(OC)cc(-c2ccc3nc(Nc4ncccc4[N+](=O)[O-])ncc3c2)c1` , which is 92.1

====

Could you please report measured EC50 for the items listed next?
- target.entity: Fibroblast growth factor receptor 2 (Homo sapiens, UniProt P21802)
- Sequence (P21802 whole entry, the tested form may be a part): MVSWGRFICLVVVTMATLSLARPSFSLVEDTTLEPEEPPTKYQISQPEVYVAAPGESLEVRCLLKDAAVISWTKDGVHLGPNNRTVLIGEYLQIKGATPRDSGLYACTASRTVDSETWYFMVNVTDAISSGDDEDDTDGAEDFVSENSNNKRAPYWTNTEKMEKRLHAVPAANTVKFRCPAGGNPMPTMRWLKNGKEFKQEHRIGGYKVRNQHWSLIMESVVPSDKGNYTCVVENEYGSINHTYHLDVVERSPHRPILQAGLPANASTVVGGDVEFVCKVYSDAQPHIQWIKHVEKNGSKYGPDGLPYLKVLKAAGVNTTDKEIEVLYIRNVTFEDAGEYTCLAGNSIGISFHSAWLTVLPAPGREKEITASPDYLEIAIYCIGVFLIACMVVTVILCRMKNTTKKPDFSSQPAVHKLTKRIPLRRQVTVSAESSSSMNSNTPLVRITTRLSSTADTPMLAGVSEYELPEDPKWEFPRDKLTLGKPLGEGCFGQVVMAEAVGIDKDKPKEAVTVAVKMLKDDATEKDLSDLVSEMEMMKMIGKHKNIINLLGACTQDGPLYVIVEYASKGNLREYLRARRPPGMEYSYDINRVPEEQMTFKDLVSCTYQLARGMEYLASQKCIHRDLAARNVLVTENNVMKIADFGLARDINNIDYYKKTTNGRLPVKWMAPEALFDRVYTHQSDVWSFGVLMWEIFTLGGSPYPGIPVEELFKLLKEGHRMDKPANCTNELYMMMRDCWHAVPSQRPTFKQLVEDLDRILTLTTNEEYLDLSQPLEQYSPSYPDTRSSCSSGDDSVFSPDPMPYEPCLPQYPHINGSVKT
- protocol: Inhibition of full length nanoluc-fused FGFR2 transfected in HEK293T cells assessed as target engagement incubated for 3 hrs in presence of K10 tracer by Nano BRET assay
Express the result in nM but write the number alone.

Kindly note the recorded EC50 for `COc1cc(OC)c(Cl)c(-c2ccc3nc(Nc4nc(Cl)ccc4[N+](=O)[O-])ncc3c2)c1Cl` , which is 1290

Kindly note the recorded EC50 for `C=CC(=O)Nc1cccc(C)c1Nc1ncc2cc(-c3c(Cl)c(OC)cc(OC)c3Cl)ccc2n1` , which is 3300

Kindly note the recorded EC50 for `COc1cc(OC)c(Cl)c(-c2ccc3nc(Nc4ncccc4[N+](=O)[O-])ncc3c2)c1Cl` , which is 867

====

- target.entity: UniProt P21802
- protocol: Inhibition of human FGFR2 in presence of ATP by hotspot assay
readout.label: pIC50
By convention, pIC50 is the negative base-10 log of a molar concentration.

Kindly note the recorded pIC50 for `COc1cc(OC)c(Cl)c(-c2ccc3nc(Nc4nc(Cl)ccc4[N+](=O)[O-])ncc3c2)c1Cl` , which is 6.31

====

- target.entity: Fibroblast growth factor receptor 4 (Homo sapiens, UniProt P22455)
- protocol: Inhibition of full length nanoluc-fused FGFR4 transfected in HEK293T cells assessed as target engagement incubated for 3 hrs in presence of K10 tracer by Nano BRET assay
readout.label: EC50 (nM)
Express the result in nM but write the number alone.

Kindly note the recorded EC50 for `COc1cc(OC)c(Cl)c(-c2ccc3nc(Nc4ncccc4[N+](=O)[O-])ncc3c2)c1Cl` , which is 2260

Kindly note the recorded EC50 for `COc1cc(OC)c(Cl)c(-c2ccc3nc(Nc4nc(Cl)ccc4[N+](=O)[O-])ncc3c2)c1Cl` , which is 52

Kindly note the recorded EC50 for `COc1cc(OC)cc(-c2ccc3nc(Nc4nc(Cl)ccc4[N+](=O)[O-])ncc3c2)c1` , which is 30

====

- target.entity: Fibroblast growth factor receptor 3 (Homo sapiens, UniProt P22607)
- Sequence (P22607 whole entry, the tested form may be a part): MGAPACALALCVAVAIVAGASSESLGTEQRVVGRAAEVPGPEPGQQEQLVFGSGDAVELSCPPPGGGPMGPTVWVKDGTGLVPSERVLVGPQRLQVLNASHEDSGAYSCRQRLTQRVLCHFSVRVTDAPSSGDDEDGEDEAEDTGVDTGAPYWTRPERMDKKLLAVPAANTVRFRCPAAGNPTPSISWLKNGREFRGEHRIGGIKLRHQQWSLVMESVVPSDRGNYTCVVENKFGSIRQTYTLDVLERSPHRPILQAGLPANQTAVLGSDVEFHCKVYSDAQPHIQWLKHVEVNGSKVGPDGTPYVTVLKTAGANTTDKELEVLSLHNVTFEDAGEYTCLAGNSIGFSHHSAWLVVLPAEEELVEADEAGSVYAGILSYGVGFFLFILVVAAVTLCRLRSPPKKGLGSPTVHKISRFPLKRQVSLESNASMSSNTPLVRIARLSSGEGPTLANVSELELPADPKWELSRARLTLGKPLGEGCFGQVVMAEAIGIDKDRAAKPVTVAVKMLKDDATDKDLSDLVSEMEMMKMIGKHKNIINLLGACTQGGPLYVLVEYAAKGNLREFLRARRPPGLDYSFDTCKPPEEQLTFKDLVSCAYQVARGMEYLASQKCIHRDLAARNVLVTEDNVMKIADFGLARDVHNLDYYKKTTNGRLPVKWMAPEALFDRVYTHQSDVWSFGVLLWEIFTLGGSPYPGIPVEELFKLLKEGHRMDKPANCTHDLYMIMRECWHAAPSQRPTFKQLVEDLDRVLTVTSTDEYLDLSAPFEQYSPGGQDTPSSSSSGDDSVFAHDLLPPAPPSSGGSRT
- protocol: Inhibition of full length nanoluc-fused FGFR3 transfected in HEK293T cells assessed as target engagement incubated for 3 hrs in presence of K10 tracer by Nano BRET assay
readout.label: EC50 (nM)
Express the result in nM but write the number alone.

Entry `C=CC(=O)Nc1cccc(C)c1Nc1ncc2cc(-c3c(Cl)c(OC)cc(OC)c3Cl)ccc2n1` , tested on Fibroblast growth factor receptor 3 (Homo sapiens, UniProt P22607), has a reported EC50 of 2240

Entry `COc1cc(OC)c(Cl)c(-c2ccc3nc(Nc4ncccc4[N+](=O)[O-])ncc3c2)c1Cl` , tested on Fibroblast growth factor receptor 3 (Homo sapiens, UniProt P22607), has a reported EC50 of 1780

Entry `COc1cc(OC)c(Cl)c(-c2ccc3nc(Nc4nc(Cl)ccc4[N+](=O)[O-])ncc3c2)c1Cl` , tested on Fibroblast growth factor receptor 3 (Homo sapiens, UniProt P22607), has a reported EC50 of 1430

====

- target.entity: UniProtKB P22455
- protocol: Inhibition of N-terminal GST tagged cytoplasmic domain human FGFR4 (460 to 802 residues) expressed in Escherichia coli BL21 (DE3) by phosphosen-csox based assay
readout.label: pIC50
By convention, pIC50 is the negative base-10 log of a molar concentration.

Kindly note the recorded pIC50 for `COc1cc(OC)cc(-c2ccc3nc(Nc4nc(Cl)ccc4[N+](=O)[O-])ncc3c2)c1` , which is 8.35

Kindly note the recorded pIC50 for `COc1cc(OC)c(Cl)c(-c2ccc3nc(Nc4nc(Cl)ccc4[N+](=O)[O-])ncc3c2)c1Cl` , which is 8.92
